studySystem: T1, lecithin:cholesterol acyltransferase (LCAT), purified from human plasma (human, UniProt P04180 25-440)
T1 sequence (looked up): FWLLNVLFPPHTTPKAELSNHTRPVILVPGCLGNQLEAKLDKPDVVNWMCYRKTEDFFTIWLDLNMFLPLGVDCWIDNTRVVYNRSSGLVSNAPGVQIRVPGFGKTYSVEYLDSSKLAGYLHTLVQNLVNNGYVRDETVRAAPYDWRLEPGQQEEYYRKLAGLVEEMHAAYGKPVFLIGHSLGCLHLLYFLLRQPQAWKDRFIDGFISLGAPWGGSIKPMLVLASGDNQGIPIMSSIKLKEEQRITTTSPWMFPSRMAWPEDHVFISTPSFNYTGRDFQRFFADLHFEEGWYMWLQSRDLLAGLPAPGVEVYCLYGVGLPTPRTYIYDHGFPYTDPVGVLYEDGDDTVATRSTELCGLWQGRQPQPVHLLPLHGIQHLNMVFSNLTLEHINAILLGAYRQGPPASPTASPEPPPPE
procedureText: cell-based or functional assay
Non-standard residues stand in square brackets, D forms with d. No end group written: not given here. Orn = NCCC[C@H](N)C(=O)O; Aib = CC(C)(N)C(=O)O
measuredQuantity: ACTIVITY (%) LCAT

Worked cases, ACTIVITY (%) LCAT given:
1. PVLDLFRELLEELQKKLK [peptide 220]
22
2. PVLDLFREGLNELLEALKQKLK [peptide 20]
57
3. PVLDLFREKLNELLEALKQKLK [peptide 33]
33
4. Ac-PVLELFRELLEELKQKLK-NH2 [peptide 194]
88
5. PVLDLFWELLNE[Aib]LEALKQKLK [peptide 51]
20
6. PVLDLFRELLNL[Aib]LEALKQKLK [peptide 95]
5
7. PVLELFENLLERLLDALQ[Orn][Orn]L[Orn] [peptide 185]
3
8. PVLELFENLLERLLDALQKKLK [peptide 146]
86

P. PVLELFLNLLERLLDWLQKKLK [peptide 158]
Q. PVLDAFRELAEALAQLKK [peptide 225]
Prompt: Thinking about recorded ACTIVITY (%) LCAT values, which is higher, P or Q ? Your answer should be the label of the entry you select.
Completion: P
(P: 30%, Q: 1%)

A. PHLDEFREKLNE[Aib]LEALKQKLK [peptide 116]
B. DEFREKLNE[Aib]LEALKQKLK [peptide 90]
C. VLDLFRELLNELLEALKQKLK [peptide 67]
Prompt: Task field, ranking: reported ACTIVITY (%) LCAT, descending order. Enter labels, ranked according to the request.
Completion: C, B, A

A. PLLELFKELLQELLEALKQKLK [peptide 23]
B. PVLDLFNELLRELLEALQKKLK [peptide 40]
Prompt: Please choose the item with the lower ACTIVITY (%) LCAT value from this pair: A and B Your answer should be the label of the entry you select.
Completion: B
(B: 25%, A: 54%)

P. PVLDEFRELYNE[Aib]LEALKQKLK [peptide 92]
Q. PVLDEFWEKLNE[Aib]LEALKQKLK [peptide 73]
Prompt: Thinking about recorded ACTIVITY (%) LCAT values, which is higher, P or Q ? Your answer should be the label of the entry you select.
Completion: Q
(Q: 10%, P: 5%)

1. PVLDLFRWLLNE[Aib]LEALKQKLK [peptide 108]
2. PVLDFFREKLNE[Aib]LEALKQKLK [peptide 63]
3. PVLDEFREKLNEL[Aib]EALKQKLK [peptide 71]
4. [dP][dL][dL][dE][dL][dL][dK][dE][dL][dL][dQ][dE][dL][dL][dE][dA][dL][dK][dQ][dK][dL][dK] [peptide 87]
5. PVLDLFRELLNELLEAGKQKLK [peptide 12]
Prompt: Sort ascending by ACTIVITY (%) LCAT. Enter labels, ranked according to the request.
Completion: 1, 4, 3, 2, 5

P. PVLDLFRELLNE[Aib]LEAWKQKLK [peptide 38]
Q. Ac-PVLDLFREGLEELKQKLK-NH2 [peptide 228]
R. PVLELFENLLEKLLDALQKKLK [peptide 169]
Prompt: Sort ascending by ACTIVITY (%) LCAT. Enter labels, ranked according to the request.
Completion: Q, R, P

I. AVLDLFRELLNELLEALKQKLK [peptide 29]
II. XXLDLFRELLNELLEALKQKLK (D-Pro (p) at 1, D-Val (v) at 2) [peptide 48]
Prompt: Please choose the item with the lower ACTIVITY (%) LCAT value from this pair: I and II Your answer should be the label of the entry you select.
Completion: II
(II: 22%, I: 39%)
